Test system: SK-BR-3
Assay: SRB colorimetric assay of cell growth and viability, SK-BR-3
Assay type: cell-based, human
Settings: SK-BR-3; 48 hours exposure
Where a SMILES comes first, the peptide text is derived from it. Bridges are numbered along the chain shown (N, C = ends). [ ]: non-standard residue; d: D form. The star is where a group is joined. d(aIle) = CC[C@H](C)[C@@H](N)C(=O)O; d(aThr) = C[C@@H](O)[C@@H](N)C(=O)O; Hexanoyl(5-Me) = CC(C)CCCC(=O)*; Orn = NCCC[C@H](N)C(=O)O; Dhb = C/C=C(\N)C(=O)O
OBSERVED PROPERTY: LC50 (µM)

compound="C/C=C1\\NC(=O)[C@H](Cc2ccccc2)NC(=O)[C@@H](C(C)C)NC(=O)[C@@H]([C@@H](C)CC)NC(=O)[C@H](NC(=O)[C@H](NC(=O)[C@H](CCCN)NC(=O)[C@H]2CCCN2C(=O)[C@H](NC(=O)[C@@H](NC(=O)[C@@H]2CCCN2C(=O)[C@H](NC(=O)CCCC(C)C)C(C)C)C(C)C)C(C)C)[C@@H](C)CC)[C@@H](C)OC(=O)[C@H](C(C)C)NC1=O [Compound 117, [Pro^12]-KF] ({Hexanoyl(5-Me)}-[dV]PV[dV][dP][Orn][d(aIle)][d(aThr)][d(aIle)][dV]F[Dhb]V; ester 8-C)" value_units=µM value_reported=5.62
compound="C/C=C1\\NC(=O)[C@H](Cc2ccccc2)NC(=O)[C@@H](C(C)C)NC(=O)[C@@H]([C@@H](C)CC)NC(=O)[C@H](NC(=O)[C@H](NC(=O)[C@H](CCCN)NC(=O)[C@H]2CCCN2C(=O)[C@H](NC(=O)[C@@H](NC(=O)[C@H](Cc2ccccc2)NC(=O)[C@H](NC(=O)CCCC(C)C)C(C)C)C(C)C)C(C)C)[C@@H](C)CC)[C@@H](C)OC(=O)[C@H](C(C)C)NC1=O [Compound 114, [Phe^12]-KF] ({Hexanoyl(5-Me)}-[dV]FV[dV][dP][Orn][d(aIle)][d(aThr)][d(aIle)][dV]F[Dhb]V; ester 8-C)" value_units=µM value_reported=6.56
compound="C/C=C1\\NC(=O)[C@H](Cc2ccccc2Cl)NC(=O)[C@@H](C(C)C)NC(=O)[C@@H]([C@@H](C)CC)NC(=O)[C@H](NC(=O)[C@H](NC(=O)[C@H](CCCN)NC(=O)[C@H]2CCCN2C(=O)[C@H](NC(=O)[C@@H](NC(=O)[C@@H](NC(=O)[C@H](NC(=O)CCCC(C)C)C(C)C)[C@@H](C)O)C(C)C)C(C)C)[C@@H](C)CC)[C@@H](C)OC(=O)[C@H](C(C)C)NC1=O [Compound 81, [Phe(2-Cl)^3]-KF]" value_units=µM value_reported=0.664
compound="C/C=C1\\NC(=O)[C@H](Cc2ccccc2)NC(=O)[C@@H](C(C)C)NC(=O)[C@@H]([C@@H](C)CC)NC(=O)[C@H](NC(=O)[C@H](NC(=O)[C@H](CCCN)NC(=O)[C@H]2CCCN2C(=O)[C@H](NC(=O)[C@@H](NC(=O)[C@H](C)NC(=O)[C@H](NC(=O)CCCC(C)C)C(C)C)C(C)C)C(C)C)[C@@H](C)CC)[C@@H](C)OC(=O)[C@H](C(C)C)NC1=O [Compound 112, [Ala^12]-KF] ({Hexanoyl(5-Me)}-[dV]AV[dV][dP][Orn][d(aIle)][d(aThr)][d(aIle)][dV]F[Dhb]V; ester 8-C)" value_units=µM value_reported=6.91
